biological target: LRRK2 wild type (recombinant human, catalytic domain amino acids 970-2527, GST-tagged) (Homo sapiens, UniProt Q5S007); construct: The wild type used was recombinant human, catalytic domain (amino acids 970-2527) GST-tagged, expressed in insect cells; GST; assay: LRRK2 wild type protein kinase assay ([γ-33P] ATP, peptide substrate […]), IC50; conditions: LRRK2 (variant not given); read-out: Potency score, LRRK2 IC50
Sequence (Q5S007 970-2527): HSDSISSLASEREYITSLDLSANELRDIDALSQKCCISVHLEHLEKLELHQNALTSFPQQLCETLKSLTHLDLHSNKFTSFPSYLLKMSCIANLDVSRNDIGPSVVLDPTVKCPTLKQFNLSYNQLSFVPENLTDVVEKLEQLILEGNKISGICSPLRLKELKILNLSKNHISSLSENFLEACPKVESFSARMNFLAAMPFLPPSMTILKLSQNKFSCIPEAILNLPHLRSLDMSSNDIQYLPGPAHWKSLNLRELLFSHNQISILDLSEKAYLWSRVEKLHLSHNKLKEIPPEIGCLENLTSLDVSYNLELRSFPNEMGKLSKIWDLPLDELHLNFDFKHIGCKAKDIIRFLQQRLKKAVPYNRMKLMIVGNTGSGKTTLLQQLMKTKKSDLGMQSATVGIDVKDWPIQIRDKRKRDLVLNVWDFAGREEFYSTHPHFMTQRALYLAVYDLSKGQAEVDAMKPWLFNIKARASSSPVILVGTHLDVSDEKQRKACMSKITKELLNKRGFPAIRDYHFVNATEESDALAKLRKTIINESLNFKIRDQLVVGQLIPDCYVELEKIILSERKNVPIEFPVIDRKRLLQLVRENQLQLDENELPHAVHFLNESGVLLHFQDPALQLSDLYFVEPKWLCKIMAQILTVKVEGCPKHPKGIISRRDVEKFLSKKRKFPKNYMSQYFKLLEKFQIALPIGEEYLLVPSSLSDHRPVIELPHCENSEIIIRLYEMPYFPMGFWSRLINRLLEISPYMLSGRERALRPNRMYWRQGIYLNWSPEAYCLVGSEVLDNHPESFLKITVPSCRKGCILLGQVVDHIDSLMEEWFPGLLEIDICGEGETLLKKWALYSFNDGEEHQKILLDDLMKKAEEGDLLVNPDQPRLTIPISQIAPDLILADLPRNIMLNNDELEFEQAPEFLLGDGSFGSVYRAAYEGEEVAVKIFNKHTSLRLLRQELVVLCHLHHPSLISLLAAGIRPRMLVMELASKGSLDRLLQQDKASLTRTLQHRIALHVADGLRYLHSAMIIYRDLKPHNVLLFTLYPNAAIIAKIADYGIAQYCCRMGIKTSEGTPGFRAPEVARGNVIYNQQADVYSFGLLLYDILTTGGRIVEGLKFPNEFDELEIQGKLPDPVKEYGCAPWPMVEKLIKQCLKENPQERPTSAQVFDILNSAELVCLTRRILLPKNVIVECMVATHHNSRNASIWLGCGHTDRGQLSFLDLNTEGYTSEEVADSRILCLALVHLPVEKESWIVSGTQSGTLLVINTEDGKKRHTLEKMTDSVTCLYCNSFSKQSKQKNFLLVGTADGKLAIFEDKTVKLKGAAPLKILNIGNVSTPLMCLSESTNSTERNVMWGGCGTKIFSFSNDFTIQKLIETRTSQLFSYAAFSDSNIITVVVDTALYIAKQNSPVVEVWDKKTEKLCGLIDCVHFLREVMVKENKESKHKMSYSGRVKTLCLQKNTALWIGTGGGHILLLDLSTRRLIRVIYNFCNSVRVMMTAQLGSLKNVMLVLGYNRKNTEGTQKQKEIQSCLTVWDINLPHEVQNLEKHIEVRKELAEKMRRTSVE
pIC50: −log10 of the molar value.
Form field: pIC50 (one value per entry).

# molecule, pIC50
rows = [
    ("Cc1n[nH]c2ccnc(Nc3ccc4cn(C)nc4c3)c12", "5.00 to 6.00"),
    ("Cc1n[nH]c2ccnc(Nc3ccc(C(=O)NC4CCCC4)cc3)c12", "5.00 to 6.00"),
    ("COc1nccc2[nH]nc(CCC(=O)N3CCC[C@H](c4ccccc4)C3)c12", "6.00 to 7.00"),
    ("Cc1n[nH]c2ccnc(NC(C)C)c12", "6.00 to 7.00"),
    ("CCC[C@@H](C)Oc1nccc2[nH]nc(C)c12", "6.00 to 7.00"),
    ("Cc1n[nH]c2ccnc(Nc3ccc(N4CCCC4=O)cc3)c12", "6.00 to 7.00"),
    ("COc1cccc(-c2nccc3[nH]nc(C)c23)c1", "5.00 to 6.00"),
    ("O=C(Nc1ccc(CCc2n[nH]c3ccnc(NC4CCCCC4)c23)cc1)c1ccncc1", "> 7.00"),
    ("Cc1n[nH]c2ccnc(N[C@H]3CC[C@H](C)CC3)c12", "6.00 to 7.00"),
    ("Cc1n[nH]c2ccnc(C(=O)NC3CCCCC3)c12", "5.00 to 6.00"),
    ("COc1ccccc1CCNc1nccc2[nH]nc(C)c12", "5.00 to 6.00"),
    ("COCC(=O)Nc1ccc(CCc2n[nH]c3ccnc(NC4CCCCC4)c23)cc1", "> 7.00"),
    ("Cc1n[nH]c2ccnc(NC(C)CC(C)C)c12 (stereo not shown)", "5.00 to 6.00"),
    ("O=C(CCc1n[nH]c2ccnc(NC3CCCCC3)c12)N1CC(c2ccccc2)C1", "6.00 to 7.00"),
    ("CCOc1ccccc1CNc1nccc2[nH]nc(C)c12", "5.00 to 6.00"),
    ("Cc1n[nH]c2ccnc(Nc3cccc(Cl)c3)c12", "6.00 to 7.00"),
    ("Cc1n[nH]c2ccnc(N[C@H](C)C(C)C)c12", "6.00 to 7.00"),
    ("O=C(CCc1n[nH]c2ccnc(NC3CCCCC3)c12)N1CCN(c2cccc(Cl)c2)CC1", "6.00 to 7.00"),
    ("COc1ccc(CCNc2nccc3[nH]nc(C)c23)cc1", "5.00 to 6.00"),
    ("COCCNc1nccc2[nH]nc(C)c12", "5.00 to 6.00"),
    ("O=C(Nc1ccc(CCc2n[nH]c3ccnc(NC4CCCCC4)c23)cc1)c1ccccn1", "> 7.00"),
    ("Cc1n[nH]c2ccnc(OC3CCN(C)CC3)c12", "5.00 to 6.00"),
    ("Cc1n[nH]c2ccnc(Nc3ccccc3F)c12", "6.00 to 7.00"),
    ("CN(C)C1CCN(C(=O)CCc2n[nH]c3ccnc(NC4CCCCC4)c23)CC1", "5.00 to 6.00"),
    ("Cc1cc(C)n(CCNc2nccc3[nH]nc(C)c23)n1", "5.00 to 6.00"),
    ("CC1CCCCN1C(=O)CCc1n[nH]c2ccnc(NC3CCCCC3)c12 (stereo not shown)", "6.00 to 7.00"),
    ("Cc1n[nH]c2ccnc(Nc3ccccn3)c12", "5.00 to 6.00"),
    ("Cc1n[nH]c2ccnc(NCCNc3ccccc3)c12", "5.00 to 6.00"),
    ("Cc1n[nH]c2ccnc(NCc3ccc(C(F)(F)F)cc3)c12", "5.00 to 6.00"),
    ("c1ccc(CCc2n[nH]c3ccnc(NC4CCCCC4)c23)nc1", "> 7.00"),
    ("N#CCc1ccc(-c2n[nH]c3ccnc(NC4CCCCC4)c23)cc1", "6.00 to 7.00"),
    ("Cc1n[nH]c2ccnc(Nc3ccccc3Cl)c12", "6.00 to 7.00"),
    ("CC1CN(C(=O)CCc2n[nH]c3ccnc(NC4CCCCC4)c23)C1", "> 7.00"),
    ("O=C(CCc1n[nH]c2ccnc(NC3CCCCC3)c12)N1CCC(C(F)(F)F)CC1", "6.00 to 7.00"),
    ("Cc1cccc(-c2n[nH]c3ccnc(NC4CCCCC4)c23)c1", "6.00 to 7.00"),
    ("Cc1n[nH]c2ccnc(Nc3cccc(N(C)C)c3)c12", "5.00 to 6.00"),
    ("Cc1n[nH]c2ccnc(Nc3ccc(C(=O)N4CCOCC4)cc3)c12", "6.00 to 7.00"),
    ("Cc1n[nH]c2ccnc(Nc3cccc(OC(C)C)c3)c12", "5.00 to 6.00"),
    ("Cc1n[nH]c2ccnc(NC3CCN(C)CC3)c12", "6.00 to 7.00"),
    ("Cc1n[nH]c2ccnc(NCCCO)c12", "5.00 to 6.00"),
]
